The reported measurements were obtained from patent US5242938A.

tested on: Micrococcus luteus (Mb 1101, ATCC 9341); assay: Agar diffusion disc assay, Micr 1101; format: cell-based; settings: Micrococcus luteus, ATCC9341; 10.0 μg/disc; 25° C., ~18 hours; read-out: Mean of triplicate zone size versus Micrococcus luteus
Decision: zone of inhibition at 10 µg/disc compared against 10 mm; not below it gives criterion met, below it gives criterion not met.

Task item: Could you tell me if the measured zone of inhibition at 10 µg/disc of `CC(=O)OC1=Cc2nc(co2)C(=O)N2CCC=C2C(=O)O[C@H](C(C)C)[C@H](C)/C=C/C(=O)NC/C=C/C(C)=C/[C@@H](OC(C)=O)C1` reaches 10 mm or more?
Reply: criterion met

Task item: Could you tell me if the measured zone of inhibition at 10 µg/disc of `CC1=C\[C@@H](OC(=O)Nc2cccc([N+](=O)[O-])c2)CC(=O)Cc2nc(co2)C(=O)N2CCC=C2C(=O)O[C@H](C(C)C)[C@H](C)/C=C/C(=O)NC\C=C\1` reaches 10 mm or more?
Reply: criterion not met

Task item: Could you tell me if the measured zone of inhibition at 10 µg/disc of `CNC(=O)O[C@@H]1/C=C(C)/C=C/CNC(=O)/C=C/[C@@H](C)[C@@H](C(C)C)OC(=O)C2=CCCN2C(=O)c2coc(n2)CC(=O)C1` reaches 10 mm or more?
Reply: criterion met

Task item: Could you tell me if the measured zone of inhibition at 10 µg/disc of `CC1=C\[C@@H](OC(=O)Nc2ccccc2)CC(=O)Cc2nc(co2)C(=O)N2CCC=C2C(=O)O[C@H](C(C)C)[C@H](C)/C=C/C(=O)NC\C=C\1` reaches 10 mm or more?
Reply: criterion met

Task item: Could you tell me if the measured zone of inhibition at 10 µg/disc of `CCC(=O)O[C@@H]1/C=C(C)/C=C/CNC(=O)/C=C/[C@@H](C)[C@@H](C(C)C)OC(=O)C2=CCCN2C(=O)c2coc(n2)CC(=O)C1` reaches 10 mm or more?
Reply: criterion met

====

biological target: CCK-A (rat pancreas) (Rattus norvegicus, UniProt P30551); construct: from tissue; host or cells: rat pancreas; test: [125I]BHCCK-8 radioligand binding, rat pancreatic preparation; conditions: read-out: CCK binding inhibition - IC50, [125I]BHCCK
Sequence (P30551 whole entry): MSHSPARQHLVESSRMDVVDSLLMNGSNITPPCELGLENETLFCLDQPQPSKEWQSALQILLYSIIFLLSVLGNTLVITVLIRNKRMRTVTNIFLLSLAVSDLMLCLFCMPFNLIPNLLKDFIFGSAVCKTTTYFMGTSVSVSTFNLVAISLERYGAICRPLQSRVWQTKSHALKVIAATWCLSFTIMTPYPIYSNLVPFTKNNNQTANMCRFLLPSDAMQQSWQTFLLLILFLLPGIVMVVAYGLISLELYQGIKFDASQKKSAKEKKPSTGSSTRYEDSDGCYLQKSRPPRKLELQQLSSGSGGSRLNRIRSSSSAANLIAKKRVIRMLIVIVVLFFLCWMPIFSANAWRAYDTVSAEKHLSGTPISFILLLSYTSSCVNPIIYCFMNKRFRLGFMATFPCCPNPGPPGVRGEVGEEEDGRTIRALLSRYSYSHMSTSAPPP
reported-property: IC50

compound: CC1=C\[C@@H](O)CC(O)Cc2nc(co2)C(=O)N2CCC=C2C(=O)O[C@H](C(C)C)[C@H](C)/C=C/C(=O)NC\C=C\1 (single isomer, unassigned) [Example 14A]
endpoint-value: > 3 µM
--
compound: CC(=O)OC1=Cc2nc(co2)C(=O)N2CCC=C2C(=O)O[C@H](C(C)C)[C@H](C)/C=C/C(=O)NC/C=C/C(C)=C/[C@@H](OC(C)=O)C1
endpoint-value: > 3 µM
--
compound: CC1=C\[C@@H](OC(=O)c2ccccc2)CC(=O)Cc2nc(co2)C(=O)N2CCC=C2C(=O)O[C@H](C(C)C)[C@H](C)/C=C/C(=O)NC\C=C\1
endpoint-value: 2.3 µM
--
compound: CC1=C\[C@@H](OC(=O)Nc2ccccc2[N+](=O)[O-])CC(=O)Cc2nc(co2)C(=O)N2CCC=C2C(=O)O[C@H](C(C)C)[C@H](C)/C=C/C(=O)NC\C=C\1
endpoint-value: > 3 µM

Please examine the following record next.
Task item: Could you please provide reported IC50 for `CCCCC(=O)O[C@@H]1/C=C(C)/C=C/CNC(=O)/C=C/[C@@H](C)[C@@H](C(C)C)OC(=O)C2=CCCN2C(=O)c2coc(n2)CC(=O)C1` ? Thanks!
Reply: > 3 µM

====

Target: CCK-B (guinea pig cortex) (Cavia porcellus, UniProt H0VZC5)
Construct: guinea pig cortical preparations; from tissue; host or cells: guinea pig brain cortex membranes
Sequence (H0VZC5 1-426): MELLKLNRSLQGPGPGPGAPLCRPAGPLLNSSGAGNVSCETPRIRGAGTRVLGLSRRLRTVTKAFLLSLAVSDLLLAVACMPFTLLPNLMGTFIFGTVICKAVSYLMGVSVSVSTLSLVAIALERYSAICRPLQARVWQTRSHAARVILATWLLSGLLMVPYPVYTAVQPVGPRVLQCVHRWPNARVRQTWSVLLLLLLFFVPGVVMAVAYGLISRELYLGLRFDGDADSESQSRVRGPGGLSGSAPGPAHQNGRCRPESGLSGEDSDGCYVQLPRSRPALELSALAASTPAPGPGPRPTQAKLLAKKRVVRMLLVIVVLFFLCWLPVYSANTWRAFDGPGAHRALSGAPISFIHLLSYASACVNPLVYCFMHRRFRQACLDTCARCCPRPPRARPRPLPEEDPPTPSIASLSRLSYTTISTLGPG
Assay: [125I]BHCCK-8 radioligand binding, guinea pig cortical preparation
Conditions: read-out: CCK binding inhibition - IC50, [125I]BHCCK
Sorting guide: entries reporting IC50 beneath 400 nM go in the YES pile, the rest go in the NO pile.

compound: CC1=C\[C@@H](OC(=O)Nc2ccc([N+](=O)[O-])cc2)CC(=O)Cc2nc(co2)C(=O)N2CCC=C2C(=O)O[C@H](C(C)C)[C@H](C)/C=C/C(=O)NC\C=C\1
assigned-class: NO
//
compound: CC(=O)O[C@@H]1/C=C(C)/C=C/CNC(=O)/C=C/[C@@H](C)[C@@H](C(C)C)OC(=O)C2=CCCN2C(=O)c2coc(n2)CC(=O)C1
assigned-class: NO
//
compound: CC(=O)OC1=Cc2nc(co2)C(=O)N2CCC=C2C(=O)O[C@H](C(C)C)[C@H](C)/C=C/C(=O)NC/C=C/C(C)=C/[C@@H](OC(C)=O)C1
assigned-class: NO

Task item: In plain terms, does `CC1=C\[C@@H](OC(=O)c2ccccc2)CC(=O)Cc2nc(co2)C(=O)N2CCC=C2C(=O)O[C@H](C(C)C)[C@H](C)/C=C/C(=O)NC\C=C\1` come in under 400 nM for IC50?
Reply: YES

Task item: In plain terms, does CC1=C\[C@@H](O)CC(O)Cc2nc(co2)C(=O)N2CCC=C2C(=O)O[C@H](C(C)C)[C@H](C)/C=C/C(=O)NC\C=C\1 (single isomer, unassigned) [Example 14A] come in under 400 nM for IC50?
Reply: NO
